EXPERIMENT: Pharmacokinetic assay in mice
Format: in vivo
DETAILS: male, mouse; ICR mice, PO 10 mg/kg, plasma
MEASURED PROPERTY: Tmax (min)

compound="CC(C)N1CCc2cc(C(=O)Nc3cccc(-c4cccc(NC(=O)c5nc6c(n5C)CCN(CCC57CC(C(=O)O)(C5)C7)C6)c4Cl)c3Cl)ncc2C1 [Example 60]" measured_value=30

I. CC(C)N1CCc2cc(C(=O)Nc3cccc(-c4cccc(NC(=O)c5nc6c(n5C)CCN(CCC57CCC(C(=O)O)(CC5)CC7)C6)c4Cl)c3Cl)ncc2C1 [Example 58]
II. CC(C)N1CCc2cc(C(=O)Nc3cccc(-c4cccc(NC(=O)c5nc6c(n5C)CCN(CCC57C8C9C5C5C7C8C95C(=O)O)C6)c4Cl)c3Cl)ncc2C1 (stereo not drawn) [Example 59]
III. CN1CCc2cc(C(=O)Nc3cccc(-c4cccc(NC(=O)c5nc6c(n5C)CCN(CCC57CCC(C(=O)O)(CC5)C7)C6)c4Cl)c3Cl)ncc2C1 [Example 2]
Endpoint returns the given compounds ordered by ascending Tmax. Write the labels in rank order as requested.
III, II, I
(III: 4.98 min, II: 30 min, I: 60 min)
